Values from patent US11976054B2

Experiment: Pharmacokinetic analysis of compounds in rats
Assay type: in vivo, SD rats
Conditions: SD, rat, in vivo, po, 10 mg/kg
Description: Healthy adult SD rats weighing 180-220 g were fasted (free access to water) overnight and divided into tail vein administration group and intragastric administration group. […] The concentration of parent drug in the plasma was determined by LC-MS/MS.
Documented AUC across a set of molecules

{"molecule": "C[C@@H](c1cc(F)c2c(c1NC(=O)N[S@@](=N)(=O)c1cc(C(C)(C)O)co1)CCC2)C1CC1 (single isomer, unassigned)", "AUC": "17300 ng·h/mL"}
{"molecule": "C[C@H](c1cc(F)c2c(c1NC(=O)N[S@@](=N)(=O)c1cc(C(C)(C)O)co1)CCC2)C1CC1 (single isomer, unassigned)", "AUC": "14500 ng·h/mL"}
{"molecule": "CC(C)(O)c1coc(S(=O)(=O)NC(=O)Nc2c3c(cc4c2CCC4)CCC3)c1 [Control 3, reference compound]", "AUC": "5080 ng·h/mL"}
